Read-out: Cytochrome P450 7A1 (Homo sapiens) (UniProt P22680)
Test: LTEA_HepaRG_CYP7A1: Life Technologies and Expression Analysis (LTEA) Assay for Cytochrome P450 7A1 (CYP7A1) using HepaRG (AID 2283496)
Details: mRNA level, 48 h; actives raise or lower the signal
Procedure: LTEA_HepaRG is a cell based, multiplexed-readout assay that uses HepaRG, a human liver cell line, with measurements taken at 48 hours after chemical dosing on a 96-well plate.LTEA_HepaRG_CYP7A1 is one of 102 assay component(s) measured in the LTEA HepaRG cell culture assay. It is a marker of NR mediated metabolism.Data from the assay component LTEA_HepaRG_CYP7A1 was analyzed into 1 endpoint. […]
Activity calls are given as the source filed them. The calls were made as follows: active = hit-call score of the fitted dose curve at least 0.9, where 1 is the maximum; inactive = score below 0.9.
I would appreciate it if you answered using one of these outcomes: T = active, F = inactive

Below, 5 compounds whose answers are already recorded.
CCOC(=O)C(C)Oc1ccc(Oc2cnc3cc(Cl)ccc3n2)cc1 (configuration not stated) : T
CCCCC(CC)COC(=O)c1ccccc1C(=O)O (configuration not stated) : T
CCCN(CCC)c1c([N+](=O)[O-])cc(C(F)(F)F)c(N)c1[N+](=O)[O-] : T
O=C(O)C1(C(=O)Nc2ccc(Cl)cc2Cl)CC1 : T
CCC(C)OC(=O)N1CCCCC1CCO (configuration not stated) : F

Please let me know the test result on file for `CSC(=O)c1cccc2nnsc12` .
F

Try this compound next: `CC(=O)S[C@@H]1CC2=CC(=O)CC[C@]2(C)[C@H]2CC[C@@]3(C)[C@@H](CC[C@@]34CCC(=O)O4)[C@H]12`
T

Also `CC(C)CCCCCCc1ccc(O)cc1` , if possible.
F

Item: `CCN(CC)C(=O)c1cccc(C)c1`
F

Please give the result for `CCOC(=O)NCCOc1ccc(Oc2ccccc2)cc1` too.
T

`OB(O)O` ?
F

Then this compound: `N[C@@H](Cc1cc(I)c(Oc2ccc(O)c(I)c2)c(I)c1)C(=O)O`
T
